Molecular target: T1, cJun bZIP (human, UniProt P05412 252-308, limits assumed)
T1 construct: Purified from a His-SUMO fusion with the tag cleaved off; also called c-Jun bZIP domain; 60 amino acid c-Jun bZIP construct
T1 chain: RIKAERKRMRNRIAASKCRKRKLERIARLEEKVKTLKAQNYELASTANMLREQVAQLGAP
Test: CD thermal denaturation, peptide 5 µM and c-Jun 5 µM
Bridge positions count the residues as written; N and C are the ends.
So I've got a bunch of proteins here, and I need their Tm (° C.) of peptide-c-Jun heterodimer values.
Answers are plain numbers, in ° C..

Ac-LVVEEDVLEEEIEQLEEKNKALKDEIEDLQKQLEKLY-NH2 (lactam 20-24 (inferred); also: table prints a different, shorter sequence for 7/8, See peptide 7; also called cyclised form of 7/8) [HingeW variant peptide 8] | 67.2

Batch request: Tm (° C.) of peptide-c-Jun heterodimer for each of the following proteins.
1. Ac-EAKELVDEEDVLEEEIEQLEERNYALRKEIEDLQKQ-NH2 (lactam 3-7, Synthetic, NΔ20 CΔ7; also called cyclised form of 14/15) [HingeW variant peptide 15]
2. Ac-EAKELVDEEDVLEEEIEQLEERNYALRKEIEDLQKQ-NH2 (Synthetic, NΔ20 CΔ7; also called linear form of 14/15) [HingeW variant peptide 14]
3. Ac-EAEELVVEEKVLEDEIEQLEERNYALRKEIEDLQKQ-NH2 (Synthetic, NΔ20 CΔ7; also called linear form of 16/17) [HingeW variant peptide 16]
4. Ac-EAEELVVEEDVLEEEIEQLEERNYALRKEIKDLQDQ-NH2 (Synthetic, NΔ20 CΔ7; also called linear form of 22/23) [HingeW peptide variant 22]

1. 59.4
2. 57.5
3. 54.9
4. 55.6
